System Tested: T1, HLA-A*02:01 (peptide-receptive MHC class I monomer from UV-ligand exchange) (human)
T1 construct: Monomers were captured on streptavidin-coated plates
Assay Procedure: UV-exchange ELISA (anti-b2m); exchange yield grade: + >=10%, ++ >=20%, +++ >=50%, ++++ >=75%
Experimental Readout: peptide exchange yield

AMADKMDMSL [peptide AMADKMDMSL (SEQ ID NO 58)]	20 to 50%
QVWEIQHTV [peptide QVWEIQHTV (SEQ ID NO 51)]	20 to 50%
SLNDLEKDVMLL [peptide SLNDLEKDVMLL (SEQ ID NO 67)]	50 to 75%
RMYNKIFAI [peptide RMYNKIFAI (SEQ ID NO 10)]	50 to 75%

Form: binder = ILYQTVTGL [peptide ILYQTVTGL (SEQ ID NO 119)] ; peptide exchange yield = 20 to 50%

Form: binder = LLADEDSSYL [peptide LLADEDSSYL (SEQ ID NO 27)] ; peptide exchange yield = 20 to 50%

Form: binder = RTFEKIEEV [peptide RTFEKIEEV (SEQ ID NO 133)] ; peptide exchange yield = 20 to 50%

Form: binder = ILLDDNMQIRL [peptide ILLDDNMQIRL (SEQ ID NO 174)] ; peptide exchange yield = ≥ 75%
